testedOn: STING (Homo sapiens, UniProt Q86WV6, G230A/H232R/R293Q/R71H)
Sequence (Q86WV6 whole entry R71H/G230A/H232R/R293Q): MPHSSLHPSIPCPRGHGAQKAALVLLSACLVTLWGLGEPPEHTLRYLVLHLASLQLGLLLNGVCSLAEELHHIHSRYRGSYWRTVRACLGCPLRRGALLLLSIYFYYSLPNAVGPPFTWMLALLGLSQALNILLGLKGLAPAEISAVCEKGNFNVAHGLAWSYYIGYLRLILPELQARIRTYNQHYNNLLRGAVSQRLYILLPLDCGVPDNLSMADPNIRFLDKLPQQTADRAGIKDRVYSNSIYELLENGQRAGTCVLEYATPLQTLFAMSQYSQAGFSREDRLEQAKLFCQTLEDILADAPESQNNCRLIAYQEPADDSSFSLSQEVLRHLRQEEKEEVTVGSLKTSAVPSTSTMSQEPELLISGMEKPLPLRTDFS
procedureSummary: STING reporter assay in THP1-Dual KO-IFNAR2 cells (2′3′cGAMP stimulation, luciferase reporter)
reportedConditions: 15 μM 2′3′cGAMP stimulation, 24 h, read-out: Pharmaron, THP1_IFNAR2 STING 24 h Luci Normalized: GeoMean EC50
Measured EC50, listed per entry.

Please review the entries below; each comes with its answer.
                    compoundstructurestring                                  testedon           value
0  CC(=O)Nc1c[nH]c2ccc(COCc3ccc(C(F)(F)F)cc3)cc12  STING (Homo sapiens, UniProt Q86WV6, G230A/H232R/R293Q/R71H)    40 to 200 nM
1  CC1(C(=O)Nc2c[nH]c3ccc(OCc4ccc(C(F)(F)F)cc4)cc23)CC1  STING (Homo sapiens, UniProt Q86WV6, G230A/H232R/R293Q/R71H)  200 to 1000 nM

Okay, now this compound:
Entry O=C(Nc1c[nH]c2ccc(CCOc3ccc(C(F)(F)F)nc3)cc12)C1CC1 , EC50 reported as 200 to 1000 nM

====

Each record here notes measured EC50.
testedOn: STING (Homo sapiens, UniProt Q86WV6, G230A/H232R/R293Q/R71H)
procedureSummary: STING reporter assay in THP1-Dual KO-IFNAR2 cells (2′3′cGAMP stimulation, luciferase reporter)
reportedConditions: 15 μM 2′3′cGAMP stimulation, 24 h, read-out: Pharmaron, THP1_IFNAR2 STING 24 h Luci Normalized: GeoMean EC50

Answered examples (3):
>>> df
                                   molecule              value
0  CC(=O)Nc1c[nH]c2ccc(CCOc3ccccc3OCC(F)(F)F)cc12 [Compound 547]     200 to 1000 nM
1  CC(=O)Nc1c[nH]c2ccc(OCCn3ccc(C(F)(F)F)n3)cc12 [Compound 196]  5000 to 100000 nM
2  O=C(Nc1c[nH]c2ccc(OCc3ccc(C(F)(F)F)cc3)cc12)C1CC(Cl)C1 (stereo not drawn) [Compound 322]     200 to 1000 nM

For O=C(COCC(F)(F)F)Nc1c[nH]c2ccc(OCC[C@@H]3C[C@@H]4CN(CC(F)(F)F)C[C@@H]4C3)cc12 [Compound 434] the molecule record lists EC50 as 40 to 200 nM

Form: molecule = COCCN1CC(C)(C(=O)Nc2c[nH]c3ccc(O[C@H]4C[C@@H](c5ccc(C(F)(F)F)cc5)C4)cc23)C1 [Compound 422] ; EC50 = 1000 to 5000 nM

Kindly note the recorded EC50 for CC(=O)Nc1c[nH]c2ccc(OCCc3sc(C(F)(F)F)nc3C)cc12 [Compound 484] , which is 1000 to 5000 nM

====

Measured EC50 of individual entries
testedOn: STING (Homo sapiens, UniProt Q86WV6, G230A/H232R/R293Q/R71H)
procedureSummary: STING reporter assay in THP1-Dual KO-IFNAR2 cells (2′3′cGAMP stimulation, luciferase reporter)
reportedConditions: 15 μM 2′3′cGAMP stimulation, 24 h, read-out: Pharmaron, THP1_IFNAR2 STING 24 h Luci Normalized: GeoMean EC50

>>> df
                    compoundstructurestring         value
0  C[C@H]1C[C@@H]1C(=O)Nc1c[nH]c2ccc(OCCc3ccc(C(F)(F)F)cc3)cc12  40 to 200 nM
1  CO[C@H]1C[C@@H](C(=O)Nc2c[nH]c3ccc(O[C@H]4C[C@H](c5ccc(C(F)(F)F)cc5)C4)cc23)C1  40 to 200 nM
2  CC(=O)Nc1c[nH]c2ccc(O[C@H]3C[C@H](c4ccc(C(F)(F)F)cc4C)C3)cc12  40 to 200 nM
3  CO[C@H]1C[C@H](C(=O)Nc2c[nH]c3ccc(O[C@H]4C[C@@H](c5ccc(C(F)(F)F)cc5)C4)cc23)C1  40 to 200 nM

Noted for CO[C@H]1C[C@@H](C(=O)Nc2c[nH]c3ccc(O[C@H]4C[C@@H](c5ccc(C(F)(F)F)cc5)C4)cc23)C1 : its EC50 reads 40 to 200 nM

====

testedOn: STING (Homo sapiens, UniProt Q86WV6, G230A/H232R/R293Q/R71H)
procedureSummary: STING reporter assay in THP1-Dual KO-IFNAR2 cells (2′3′cGAMP stimulation, luciferase reporter)
reportedConditions: 15 μM 2′3′cGAMP stimulation, 24 h, read-out: Pharmaron, THP1_IFNAR2 STING 24 h Luci Normalized: GeoMean EC50
pEC50: −log10 of the molar value.
measure: pEC50

                                   molecule  measure         value
0  COCCCC(=O)Nc1c[nH]c2ccc(OCC[C@@H]3C[C@@H]4CN(CC(F)(F)F)C[C@@H]4C3)cc12 [Compound 520]    pEC50  6.70 to 7.40

Field pEC50 (STING (Homo sapiens, UniProt Q86WV6, G230A/H232R/R293Q/R71H)), entry CC1(C(=O)Nc2c[nH]c3ccc(O[C@H]4C[C@H](c5ccc(C(F)(F)F)cc5)C4)cc23)CCOCC1 [Compound 488] : 6.70 to 7.40

With STING (Homo sapiens, UniProt Q86WV6, G230A/H232R/R293Q/R71H) as the test system, O=C(Nc1c[nH]c2ccc(CCNc3ccc(C(F)(F)F)cn3)cc12)C1CCC1 [Compound 134] showed pEC50 of 6.00 to 6.70

// molecule O=C(Nc1c[nH]c2ccc(OCCc3cnc(N4CCC(F)(F)CC4)c(F)c3)cc12)C1CC1 [Compound 183] , assay STING (Homo sapiens, UniProt Q86WV6, G230A/H232R/R293Q/R71H), pEC50 value: 6.00 to 6.70

STING (Homo sapiens, UniProt Q86WV6, G230A/H232R/R293Q/R71H) data for C[C@H]1C[C@H](C(=O)Nc2c[nH]c3ccc(OCc4ccc(C(F)(F)F)cc4)cc23)C1 [Compound 320] ; its pEC50: 6.00 to 6.70

Recorded pEC50 for O=C(Nc1c[nH]c2ccc(OCCc3ccc(C(F)(F)F)cc3)cc12)C1CC(O)C1 (stereo not drawn) [Compound 180] on STING (Homo sapiens, UniProt Q86WV6, G230A/H232R/R293Q/R71H) was 6.00 to 6.70
